Each record here notes measured log10 EC50.
Target: AMPK 111 (Homo sapiens, UniProt Q13131+Q9Y478)
Construct: open reading frames encoding the full-length α1, β1 and δ1 subunits of human AMPK
Sequence (Q13131 whole entry): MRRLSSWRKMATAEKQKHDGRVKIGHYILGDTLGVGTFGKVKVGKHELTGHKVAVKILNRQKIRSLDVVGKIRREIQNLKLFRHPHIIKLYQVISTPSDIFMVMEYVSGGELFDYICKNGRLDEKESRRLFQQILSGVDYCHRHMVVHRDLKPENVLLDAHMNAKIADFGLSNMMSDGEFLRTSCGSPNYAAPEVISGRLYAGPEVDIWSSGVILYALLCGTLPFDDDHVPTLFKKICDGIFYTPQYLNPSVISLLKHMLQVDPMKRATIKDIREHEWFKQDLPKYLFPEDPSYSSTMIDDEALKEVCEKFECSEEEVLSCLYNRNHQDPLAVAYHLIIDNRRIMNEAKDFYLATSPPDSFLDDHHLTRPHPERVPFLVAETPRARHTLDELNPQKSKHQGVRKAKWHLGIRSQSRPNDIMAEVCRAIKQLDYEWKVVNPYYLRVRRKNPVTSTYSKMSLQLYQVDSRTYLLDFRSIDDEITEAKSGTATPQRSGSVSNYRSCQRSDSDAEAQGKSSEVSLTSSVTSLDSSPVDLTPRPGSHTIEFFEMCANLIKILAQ
Sequence (Q9Y478 whole entry): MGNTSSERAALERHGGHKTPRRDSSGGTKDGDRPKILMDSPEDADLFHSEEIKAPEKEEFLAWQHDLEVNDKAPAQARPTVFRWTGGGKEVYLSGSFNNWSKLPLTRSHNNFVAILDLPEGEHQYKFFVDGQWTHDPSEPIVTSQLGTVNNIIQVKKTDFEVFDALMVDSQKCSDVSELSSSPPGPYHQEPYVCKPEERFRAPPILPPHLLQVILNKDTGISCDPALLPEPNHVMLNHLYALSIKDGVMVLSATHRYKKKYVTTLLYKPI
Sequence (P54619 whole entry partner): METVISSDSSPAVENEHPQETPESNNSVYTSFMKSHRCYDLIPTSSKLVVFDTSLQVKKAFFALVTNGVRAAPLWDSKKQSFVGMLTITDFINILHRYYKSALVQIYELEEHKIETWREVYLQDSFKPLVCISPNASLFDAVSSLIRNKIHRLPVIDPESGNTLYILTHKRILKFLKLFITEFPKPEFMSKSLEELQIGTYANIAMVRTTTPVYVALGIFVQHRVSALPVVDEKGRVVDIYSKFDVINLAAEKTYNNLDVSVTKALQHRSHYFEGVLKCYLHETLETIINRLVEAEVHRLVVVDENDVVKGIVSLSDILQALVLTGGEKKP
Test: Biochemical profiling of AMPK activators by AMPK111 (HTRF/TR-FRET assay, SAMS peptide, PP2A dephosphorylation protection)
Settings: phosphorylated AMPK 111 (α1β1δ1 as printed); 11 point dilution, duplicate; 4-parameter fit
MEASURED_PROPERTY: log10 EC50 (log10 of the value in nM)

{"MOLECULE": "Cn1c(O)nc2cc(-c3ccc(-c4cc5c(CCC(=O)O)n[nH]c5cc4Cl)cc3)ccc21", "ENDPOINT_VALUE": 2.34}
{"MOLECULE": "COc1ccc(-c2ccc(-c3cc4c(CCC(=O)O)n[nH]c4cc3Cl)cc2)c(O)c1OC", "ENDPOINT_VALUE": 0.78}
{"MOLECULE": "CN(C)C(=O)c1ccc(-c2ccc(-c3cc4c(CCC(=O)O)n[nH]c4cc3Cl)cc2)c(O)c1", "ENDPOINT_VALUE": 1.20}
{"MOLECULE": "NC(c1ccc(-c2ccc(-c3cc4c(CCC(=O)O)n[nH]c4cc3Cl)cc2)c(O)c1)C(F)(F)F (stereo not shown)", "ENDPOINT_VALUE": 1.32}
{"MOLECULE": "NC(=O)c1ccc(-c2ccc(-c3cc4c(CCC(=O)O)n[nH]c4cc3Cl)cc2)cc1", "ENDPOINT_VALUE": 1.95}
{"MOLECULE": "NC(=O)Cc1ccc(-c2ccc(-c3cc4c(CCC(=O)O)n[nH]c4cc3Cl)cc2)cc1", "ENDPOINT_VALUE": 1.56}
{"MOLECULE": "O=C(O)CCc1n[nH]c2cc(Cl)c(-c3ccc(-c4ccc(C(=O)NCCCO)cc4)cc3)cc12", "ENDPOINT_VALUE": 1.85}
{"MOLECULE": "O=C(O)CCc1n[nH]c2cc(Cl)c(-c3ccc(-c4ccc(OCCN5CCOCC5)cc4)cc3)cc12", "ENDPOINT_VALUE": 1.98}
{"MOLECULE": "N#Cc1cccc(-c2ccc(-c3cc4c(CCC(=O)O)n[nH]c4cc3Cl)cc2)c1O", "ENDPOINT_VALUE": 2.32}
{"MOLECULE": "O=C(O)CCc1n[nH]c2cc(Cl)c(-c3ccc(-c4ccc(F)c(F)c4O)cc3)cc12", "ENDPOINT_VALUE": 2.45}
{"MOLECULE": "NC(=O)c1ccc(-c2ccc(-c3cc4c(CCC(=O)O)n[nH]c4cc3Cl)cc2)c(O)c1", "ENDPOINT_VALUE": 0.78}
{"MOLECULE": "O=C(O)CCc1n[nH]c2cc(Cl)c(-c3ccc(-c4c(O)cccc4Cl)cc3)cc12", "ENDPOINT_VALUE": 1.30}
{"MOLECULE": "O=C(O)CCc1n[nH]c2cc(Cl)c(-c3ccc(-c4cccc(F)c4O)cc3)cc12", "ENDPOINT_VALUE": 2.05}
{"MOLECULE": "O=C(O)CCc1c[nH]c2cc(Cl)c(-c3ccc(-c4ccccc4O)cc3)cc12", "ENDPOINT_VALUE": 1.79}
{"MOLECULE": "COc1ccc(-c2ccc(-c3cc4c(CCC(=O)O)n[nH]c4cc3Cl)cc2)c(O)c1", "ENDPOINT_VALUE": 2.18}
{"MOLECULE": "COc1cc(O)c(-c2ccc(-c3cc4c(CCC(=O)O)n[nH]c4cc3Cl)cc2)c(Cl)c1", "ENDPOINT_VALUE": 1.98}
